System: NCI-H2126
assay.details: relative viability (nuclei count vs DMSO), 5 days (fraction); higher = more cells survive
experimental.setup: first compound 8 µM
# reported relative viability; entries follow

Example entries begin here.
Data point: O=c1cc(-c2cccc3c2Sc2ccccc2S3)oc(N2CCOCC2)c1 + CS(=O)(=O)CCNCc1ccc(-c2ccc3ncnc(Nc4ccc(OCc5cccc(F)c5)c(Cl)c4)c3c2)o1 [Lapatinib] (partner 2 µM) ; relative viability = 0.796

Data point: O=c1cc(-c2cccc3c2Sc2ccccc2S3)oc(N2CCOCC2)c1 + O=C(CCCCCCC(=O)Nc1ccccc1)NO [Vorinostat] (partner 1 µM) ; relative viability = 0.74

Shifting focus to the molecule that follows.
Data point: O=c1cc(-c2cccc3c2Sc2ccccc2S3)oc(N2CCOCC2)c1 + CC(=O)c1c(C)c2cnc(Nc3ccc(N4CCNCC4)cn3)nc2n(C2CCCC2)c1=O [Palbociclib] (partner 0.5 µM) ; relative viability = 0.357
